tested on: Vero E6; experiment: relative viability EC50 (midpoint between 100% and the lowest measured viability); higher = less toxic; conditions: 72 h
Recorded relative viability EC50 by entry

Worked examples follow.
compound: CC(=O)Nc1ccc(S(=O)(=O)c2ccc(NC(C)=O)cc2)cc1 [acedapsone]
relative viability EC50: > 10 µM
--
compound: O=C(NC(=O)c1c(F)cccc1F)Nc1cc(Cl)c(OC(F)(F)C(F)C(F)(F)F)cc1Cl (stereo unspecified) [lufenuron]
relative viability EC50: > 10 µM
--
compound: COc1ccc(N(C)c2nc(C)nc3ccccc23)cc1 [verubulin]
relative viability EC50: 0.0037 µM

Per the reported Vero E6 data, C=CC(=O)c1ccc2ccccc2c1 [JAK3-inhibitor-V] has relative viability EC50 of > 10 µM

Form: item CC1(N)CCN(c2cnc(-c3cccc(Cl)c3Cl)c(N)n2)CC1 [SHP099] ; test system Vero E6; relative viability EC50: > 10 µM

Assay Vero E6, sample CC1(C)CN2C(CS/C(=N\C3CCCCC3)NC3CCCCC3)=CSC2=N1 [IT1t] , relative viability EC50 read: > 10 µM
